- System: HCV genotype 1a Y93H resistant mutant replicon
- experiment: Replicon assay against resistant mutant 1a Y93H (transient transfection)
- Assay type: cell-based
- experimental-setup: Hepatitis C virus, read-out: Genotype 1a Y93H
pEC50: −log10 of the molar value.
quantity-name: pEC50

Consider the reported pEC50 for these compounds:
query-smiles | pEC50
COC(=O)N[C@H](C(=O)N1CC2(C[C@H]1c1nc(-c3ccc(-c4ccc(NC(=O)c5ccc(N6CCN(C(=O)[C@H]7CC7(C)C)C[C@H]6C)nc5)cc4OC(F)(F)F)cc3)c[nH]1)OCCO2)C(C)C | 9.00 to 10.00
COC(=O)N[C@H](C(=O)N1C[C@@H](C#N)C[C@H]1c1nc(-c2ccc(-c3cc(Cl)c(NC(=O)c4ccc(N5CCN(C(=O)OC(C)(C)C)C[C@H]5C)nc4)cc3OC(F)(F)F)cc2)c[nH]1)C(C)C | 6.00 to 8.00
COC(=O)N[C@H](C(=O)N1C[C@@H](C)C[C@H]1c1nc(-c2ccc(-c3cc(F)c(NC(=O)c4ccc(N5CCN(C(=O)C(C)(C)C)C[C@H]5C)nc4)cc3OC(F)(F)F)cc2)c[nH]1)C(C)C | 6.00 to 8.00
COC(=O)N[C@H](C(=O)N1C[C@@H](OC)C[C@H]1c1nc(-c2ccc(-c3cc(Cl)c(NC(=O)c4ccc(N5CCN(C(=O)C(C)(C)C)C[C@H]5C)nc4)cc3OC(F)(F)F)cc2)c[nH]1)C1CCOCC1 | 8.00 to 9.00
COC(=O)N[C@H](C(=O)N1C[C@@H](C)C[C@H]1c1nc(-c2ccc(-c3c(Cl)cc(C(=O)Nc4ccc(N5CCN(C(=O)C(C)(C)C)C[C@H]5C)nc4)cc3OC(F)(F)F)cc2)c[nH]1)C1CCOCC1 | 8.00 to 9.00

Asked: Fill blank: measured pEC50 of the compound COC(=O)N[C@H](C(=O)N1C[C@@H](C)C[C@H]1c1nc(-c2ccc(-c3cc(Cl)c(C(=O)Nc4ccc(N5CCN(C(=O)C(C)(C)C)C[C@H]5C)nc4)cc3OC(F)(F)F)cc2)c[nH]1)C1CCOCC1 is ____.
Given back: 6.00 to 8.00

====

Here, each record is paired with measured EC50 data.
- System: HCV genotype 1a Y93H resistant mutant replicon
- experiment: Replicon assay against resistant mutant 1a Y93H (transient transfection)
- Type: cell-based
- experimental-setup: Hepatitis C virus, read-out: Genotype 1a Y93H
- Method: Assay 3: Replicon Assays Against Resistant Mutants […] Potencies of test compounds against additional mutations of interest were determined using transient transfection assays. These mutants included genotype 1a Y93C, Y93H, M28T, Q30E, Q30K, L31M, and Y93N. […] The RNA was used to transiently transfect Huh-LUNET cells (obtained from ReBLikon GmbH, Schriesheim, Germany) by electroporation, and the potencies of test compounds against the mutants were determined as previously described.

compound | EC50
COC(=O)N[C@H](C(=O)N1C[C@@H](C)C[C@H]1c1nc(-c2ccc(-c3cc(Cl)c(NC(=O)c4ccc(N5CCN(C(=O)C(C)(C)C)C[C@H]5C)nc4)cc3OC(F)(F)F)cc2)c[nH]1)C1CCOCC1 [Example 14] | 1 to 10 nM
COC(=O)N[C@H](C(=O)N1C[C@@H](OC)C[C@H]1c1nc(-c2ccc(-c3cc(Cl)c(NC(=O)c4ccc(N5CCN(C(=O)C(C)(C)C)C[C@H]5C)nc4)cc3OC(F)(F)F)cc2)c[nH]1)C(C)C [Example 13] | 1 to 10 nM
COC(=O)N[C@H](C(=O)N1C[C@@H](OC)C[C@H]1c1nc(-c2ccc(-c3cc(Cl)c(NC(=O)c4ccc(N5CCN(C(=O)C(C)(C)CO)C[C@H]5C)nc4)cc3OC(F)(F)F)cc2)c[nH]1)C1CCOCC1 [Example 16] | 1 to 10 nM

Asked: Tell me reported EC50 for COC(=O)N[C@H](C(=O)N1C[C@@H](C)C[C@H]1c1nc(-c2ccc(-c3ccc(C(=O)Nc4ccc(N5CCN(C(=O)C(C)(C)C)C[C@H]5C)nc4)c(F)c3OC(F)(F)F)cc2)c[nH]1)C1CCOCC1 [Example 21] , tested with HCV genotype 1a Y93H resistant mutant replicon.
Given back: 0.1 to 1 nM

Asked: Tell me reported EC50 for COC(=O)N[C@H](C(=O)N1C[C@@H](C)C[C@H]1c1nc(-c2ccc(-c3cc(Cl)c(NC(=O)c4ccc(N5CCN(C(=O)C(C)(C)C)C[C@H]5C)nc4)cc3OC(F)(F)F)cc2)c[nH]1)C(C)C [Example 10] , tested with HCV genotype 1a Y93H resistant mutant replicon.
Given back: 1 to 10 nM

Asked: Tell me reported EC50 for COC(=O)N[C@H](C(=O)N1C[C@@H](C(N)=O)C[C@H]1c1nc(-c2ccc(-c3cc(Cl)c(NC(=O)c4ccc(N5CCN(C(=O)C(C)(C)C)C[C@H]5C)nc4)cc3OC(F)(F)F)cc2)c[nH]1)C(C)C [Example 18] , tested with HCV genotype 1a Y93H resistant mutant replicon.
Given back: 1 to 10 nM

Asked: Tell me reported EC50 for COC(=O)N[C@H](C(=O)N1C[C@@H](C)C[C@H]1c1nc(-c2ccc(-c3ccc(C(=O)Nc4ccc(N5CCN(C(=O)[C@H]6CC6(C)C)C[C@H]5C)nc4)cc3OC(F)(F)F)cc2)c[nH]1)C(C)C [Example 8] , tested with HCV genotype 1a Y93H resistant mutant replicon.
Given back: 10 to 1000 nM

Asked: Tell me reported EC50 for COC(=O)N[C@H](C(=O)N1C[C@@H](C)C[C@H]1c1nc(-c2ccc(-c3ccc(C(=O)Nc4ccc(N5CCN(C(=O)C(C)(C)C)C[C@H]5C)nc4)cc3OC(F)(F)F)cc2)c(Cl)[nH]1)C(C)C [Example 12] , tested with HCV genotype 1a Y93H resistant mutant replicon.
Given back: 1 to 10 nM

Asked: Tell me reported EC50 for CNC(=O)N1C[C@@H](C)N(c2ccc(C(=O)Nc3cc(OC(F)(F)F)c(-c4ccc(-c5c[nH]c([C@@H]6C[C@H](C)CN6C(=O)[C@@H](NC(=O)OC)C(C)C)n5)cc4)cc3Cl)cn2)C[C@@H]1C [Example 1] , tested with HCV genotype 1a Y93H resistant mutant replicon.
Given back: 10 to 1000 nM

FYI, the data here is from patent US9212168B2.
